The values you see were collected from the supplement of paper PMC9732359.

Give measured protein stability index for each item. Keep answers brief.
run_description: protein stability index of a GFP-peptide fusion (yeast GPS) (PSI 1-4); higher = more stable; sorted into four equal gates, so the index is relative within each strain
experimental_conditions: ubr1∆
One number for each entry.

>>> print(df.to_string())
                    sequence                 property  measured_result
0  KVAPAPFGAKSTKSNKT [RPL8A]  protein stability index             2.94

Would you mind listing protein stability index for each of the following sequences?
1. SRPLKKVKILEQIDENW [SWI3]
2. VNGLLQVLMDINTLNGG [GAL11]
3. LVVLTDVVERLHKNFES [RGR1]

Result:
2.99
2.91
2.96

----------
run_description: protein stability index of a GFP-peptide fusion (yeast GPS) (PSI 1-4); higher = more stable; sorted into four equal gates, so the index is relative within each strain
experimental_conditions: ubr1∆
property: protein stability index

Solved entries (count: 2):
                             sequence                 property  measured_result
0  KLLQLFLTPMDSIDLAP [YML103C/NUP188]  protein stability index             1.36
1          ITKLHLDKDRKALIQRK [RPL26A]  protein stability index             1.51

Would you mind listing protein stability index for each of the following sequences?
1. REAYIENFAKGEHISAI [SWP82]
2. LLRIQMLLCVSYFLQER [PCI8]
3. LNEEAVIFLSSLLTLVG [YJL039C/NUP192]
4. FPWLNAIKYRPTSVKLL [POP3]
5. CKLFDKISFNLRLKLFL [SRB8]
6. VFLLLQAYFSRLELPVD [BRR2]

Result:
3.07
1.22
2.9
1.96
1.18
1.48

----------
run_description: protein stability index of a GFP-peptide fusion (yeast GPS) (PSI 1-4); higher = more stable; sorted into four equal gates, so the index is relative within each strain
experimental_conditions: san1∆
Kind request: treat 3 as inclusive, so protein stability index at 3 or higher is Condition met, anything lower is Condition not met.

Task: Has IYAGFGRDTTDYLKNII [RPN2] a recorded protein stability index greater than or equal to 3?
Result: Condition met

----------
Give measured protein stability index for each item. Keep answers brief.
run_description: protein stability index of a GFP-peptide fusion (yeast GPS) (PSI 1-4); higher = more stable; sorted into four equal gates, so the index is relative within each strain
experimental_conditions: san1∆
Answers are plain numbers.

Solved entries (count: 3):
In [3]: df
Out[3]:
                    sequence                 property  measured_result
0   DHLVSSIPMGGQSINDS [ARP9]  protein stability index             3.08
1   EEVVSNDEGVWDLVDER [PRP8]  protein stability index             3.42
2  APKGSTDPKELYNNAHV [RPC40]  protein stability index             2.68

Would you mind listing protein stability index for each of the following sequences?
1. KCIPKKGTVFQFEIPIS [POP4]
2. FTIQSFVSSLSNTSTLK [BRR2]
3. QDLSRNTLGKGQNCLDI [SNU114]
4. VELPYGAHGYSGFYTFS [PRE1]
5. KPPISDSVFSFGPKKEN [YLR335W/NUP2]

Result:
[1.49, 2.01, 3.28, 2.9, 2.75]

----------
run_description: protein stability index of a GFP-peptide fusion (yeast GPS) (PSI 1-4); higher = more stable; sorted into four equal gates, so the index is relative within each strain
experimental_conditions: ubr1∆
property: protein stability index

Solved entries (count: 6):
>>> df
                             sequence  measured_result
0           DEEASYKLGKVKKVQLG [RPS4A]             2.98
1          DIDGIMDNPRKLSKILR [SNU114]             2.96
2           LLAREVLRLRGALVDRT [RPS0A]             2.03
3           LATRRVLQEYRLTKQAF [RPO21]             3.17
4           VFVDGEANWPLPVNIRR [RPO21]             3.13
5  PLINLALIDTEFANFEL [YML103C/NUP188]             2.95

Would you mind listing protein stability index for each of the following sequences?
1. HIRKASSKKSKRLDKVG [LRP1]
2. LVQLPKSAMDTFKSVSK [POP3]

Result:
1: 2.95; 2: 2.54

Would you mind listing protein stability index for each of the following sequences?
1. DEEELGQRTAYHSKRDA [RPB2]
2. PYLPKHYLVLLVAKFLY [YJR042W/NUP85]
3. QAQLRIDDKTQNDELTM [DIS3]
4. YWQFNGVIALGQFVTLG [RMP1]

Result:
3.04
1.21
2.62
2.91

Would you mind listing protein stability index for each of the following sequences?
1. QAPSELELQVAKTFIDL [RPS7B]
2. LHVEQLSGGQKTVCAIA [SMC3]
3. NIMVTIDGCVKIGDLGL [SSN3]
4. LKERAKNISSQLDSKLM [YGR119C/NUP57]

Result:
1: 2.99; 2: 1.82; 3: 3.43; 4: 1.28

Would you mind listing protein stability index for each of the following sequences?
1. VKKGPVRLPTKVLKIST [RPS20]
2. WLNFLRGTIPLLERYIG [PRP8]
3. RELILAKKQNYKLTNDE [YCG1]
4. VNQEFIFEAISLSDELN [YJL039C/NUP192]
5. GKHSQEQNSSSAKPSQI [SIR4]
6. NDNNSPHTPVTRKGYIP [YLR018C/POM34]
7. QSTPVLLNHGERAELET [RPN1]

Result:
[2.37, 1.1, 3.29, 2.75, 3.24, 3.01, 2.66]

Would you mind listing protein stability index for each of the following sequences?
1. LDEVDAALDLSHTQNIG [SMC2]
2. LGNGVACDPSEIEPILM [RGR1]
3. TTESSDLKEGLQDLSRY [GRR1]
4. PLYVMDEIDAALDFRNV [SMC4]
5. AFGEFSLEGCVEMAWIM [FAS2]
6. FDDSSRIVNHKTKLWGF [LIN1]
7. QESFINTMSAWVNMLLI [FAS2]

Result:
1: 3.12; 2: 2.91; 3: 3.55; 4: 2.51; 5: 2.37; 6: 2.94; 7: 2.37

----------
Give measured protein stability index for each item. Keep answers brief.
run_description: protein stability index of a GFP-peptide fusion (yeast GPS) (PSI 1-4); higher = more stable; sorted into four equal gates, so the index is relative within each strain
experimental_conditions: ubr1∆
One number for each entry.

Would you mind listing protein stability index for each of the following sequences?
1. STKLSRPFDSFGKLLQA [ITC1]
2. NNTNNANSSITPAFGSN [YJL041W/NSP1]
3. LLDEEAEQSFDQQSPWL [RPO21]
4. VKVSAAAGKANKQFAKF [RPS11A]
5. FAGSNNQPHQSQTPSFN [YOR098C/NUP1]

Result:
[2.03, 3.06, 3.08, 2.93, 3.01]

----------
run_description: protein stability index of a GFP-peptide fusion (yeast GPS) (PSI 1-4); higher = more stable; sorted into four equal gates, so the index is relative within each strain
experimental_conditions: ubr1∆
Give measured protein stability index for each item. Keep answers brief.
One number for each entry.

>>> print(df.to_string())
                    sequence  measured_result
0  TNVSKQNDFLFSVGESL [ECM29]             2.46
1   DWVENELEALKLEAEEI [FAS2]             3.49
2   DPPKGILLYGPPGTGKT [RPT1]             3.23
3  KSEEVKAEDDTGEEEED [RPC37]             2.95
4   SIWQVKDQLPDLESMGL [MED7]             3.35

Would you mind listing protein stability index for each of the following sequences?
1. QPASYHSVQETNKISPK [SSN2]
2. CCTKFFTMMTSEPLTLK [PCI8]
3. SARGIETRPAQVILPMS [FAS2]
4. KNEPDYSKAKYPDLQPF [CDC53]

Result:
1.91
1.64
3.16
2.5

Would you mind listing protein stability index for each of the following sequences?
1. EIAGLSPYERRLIDLIR [RPL36A]
2. TMGEETAKKDMSSTTPK [SNF12]

Result:
1. 2.29
2. 3.27

----------
run_description: protein stability index of a GFP-peptide fusion (yeast GPS) (PSI 1-4); higher = more stable; sorted into four equal gates, so the index is relative within each strain
experimental_conditions: san1∆
property: protein stability index
Numbers only.

>>> df
                   sequence                 property  measured_result
0  ESFTEELSNELSRLSTA [MED1]  protein stability index             3.05

Would you mind listing protein stability index for each of the following sequences?
1. DFDGDEMNLHVPQTEEA [RPO31]
2. SKMLDAASSQVSIVKLD [SNF12]
3. RNAALRAKAEAAEFRYK [SCL1]
4. AGLDKGISINNMMEHWD [RPO31]
5. CTESTRENALYDYYALQ [SNF2]
6. NNKFANKIIPNVGLCIT [RPC25]
7. LDPISLILIPGETMWVP [RPN13]
8. GGNSTQNTSNMNAGGLF [YGR119C/NUP57]

Result:
2.99
3.03
2.93
3.02
2.99
2.94
2.95
3.04
